- Read-out: MYC, MYC (gene 4609)
- test-method-notes: LTEA_HepaRG_MYC: Life Technologies and Expression Analysis (LTEA) Assay for MYC using HepaRG (AID 2283518)
- assay-context: mRNA level, 48 h; actives raise or lower the signal
Active and inactive are the calls of the source. The calls were made as follows: active = hit-call score of the fitted dose curve at least 0.9, where 1 is the maximum; inactive = score below 0.9.
reported-endpoint: AC50

These solved cases illustrate the format of a correct answer.
CCCCC(CC)COC(=O)CCCCC(=O)OCC(CC)CCCC (configuration not stated)	inactive
C#C[C@]1(O)CC[C@H]2[C@@H]3CCC4=CC(=O)CC[C@@H]4[C@H]3CC[C@@]21C	inactive
Cc1cc(CCN2CCN(c3nsc4ccccc34)CC2)cc2c1NC(=O)CC2(C)C	87.1 µM (active)
CN1CCC[C@H]1c1cccnc1	inactive
CC[C@H](c1ccc(O)cc1)[C@@H](CC)c1ccc(O)cc1	inactive
CC1=C(/C=C/C(C)=C/C=C/C(C)=C/C(=O)O)C(C)(C)CCC1	22.7 µM (active)

Query block: Given `CC(C)(C)CC(C)(C)c1ccc(O)c(-n2nc3ccccc3n2)c1` , state its recorded AC50.
Result block: inactive

Query block: Same read-out for `CC(C)(C)c1ccc(O)c(C(C)(C)C)c1` ?
Result block: inactive
